B1: HDV Ribozyme (parent)
chain: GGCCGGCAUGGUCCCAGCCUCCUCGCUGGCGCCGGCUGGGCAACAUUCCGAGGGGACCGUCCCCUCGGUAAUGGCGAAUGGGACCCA

variants of: B1; assay: self-cleavage, relative activity (ratio to wild type); higher = more cleavage; co-transcriptional
assayMetric: self-cleavage
Please reply with the number alone, leaving off any unit.

Item: U79G C86G | self-cleavage: 0.712

Entry C64A U65A , self-cleavage reported as 0.895

Consider G17U U47G . Its measured self-cleavage is 0.35

response.value for C14A G68C (field: self-cleavage) = 0.388

Please fill in: self-cleavage reported for G6C C30U = 0.0723
